The entries below are paired with their reported IC50.
Subject Of Test: HIV-1 Env of pseudovirus isolate MGRM-G-014 (subtype G) (HIV-1)
Test Name: cell-based or functional assay
API: value field is a number in µg/mL; no unit string.

Binder	Endpoint Unit	IC50
PGT-130 (antibody, V domains shown) VH: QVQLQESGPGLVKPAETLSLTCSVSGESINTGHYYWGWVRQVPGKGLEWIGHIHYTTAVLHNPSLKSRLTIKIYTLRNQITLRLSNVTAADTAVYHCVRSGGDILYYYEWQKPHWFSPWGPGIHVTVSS VL: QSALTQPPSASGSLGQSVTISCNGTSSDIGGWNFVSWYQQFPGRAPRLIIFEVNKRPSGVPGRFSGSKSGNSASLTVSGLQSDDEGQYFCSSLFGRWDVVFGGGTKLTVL	µg/mL	2.23

Ask: May I ask what IC50 has been recorded for PGT-123 (antibody, V domains shown) VH: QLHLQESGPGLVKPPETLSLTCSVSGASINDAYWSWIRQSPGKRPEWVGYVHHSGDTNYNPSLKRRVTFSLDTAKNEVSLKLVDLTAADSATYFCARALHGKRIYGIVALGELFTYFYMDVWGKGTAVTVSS VL: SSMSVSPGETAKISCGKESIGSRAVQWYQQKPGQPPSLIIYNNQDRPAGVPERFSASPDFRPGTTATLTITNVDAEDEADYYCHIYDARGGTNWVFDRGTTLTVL ?
Reply: 0.005

Measured values drawn from patent US20160264649A1 for this set.
